The values you see were collected from paper PMC7662523.

assay: Singlet oxygen quantum yield, indirect method with DMA as 1O2 probe in DMF; format: physicochemical; conditions: DMA probe, irradiated at 515 nm, relative to TPP (ΦΔ = 0.62), n = 3
So I've got a bunch of compounds here, and I need their ΦΔ (1O2 quantum yield) values.
Answers are plain numbers.

Example entries begin here.
O=C(NCCC[Si]12O[Si]3(c4ccccc4)O[Si]4(c5ccccc5)O[Si](c5ccccc5)(O1)O[Si]1(c5ccccc5)O[Si](c5ccccc5)(O2)O[Si](c2ccccc2)(O3)O[Si](c2ccccc2)(O4)O1)Nc1ccc(-c2c3nc(c(-c4ccccc4)c4ccc([nH]4)c(-c4ccccc4)c4nc(c(-c5ccccc5)c5ccc2[nH]5)C=C4)C=C3)cc1 [POSSP 2]    0.60
NCCC[Si]12O[Si]3(CCCN)O[Si]4(CCCN)O[Si](CCCN)(O1)O[Si]1(CCCN)O[Si](CCCN)(O2)O[Si](CCCN)(O3)O[Si](CCCNC(=O)c2ccc(-c3c5nc(c(-c6ccccc6)c6ccc([nH]6)c(-c6ccccc6)c6nc(c(-c7ccccc7)c7ccc3[nH]7)C=C6)C=C5)cc2)(O4)O1 [POSSP 4]    0.70
C[N+](C)(C)CCC[Si]12O[Si]3(CCCNC(=O)c4ccc(-c5c6nc(c(-c7ccccc7)c7ccc([nH]7)c(-c7ccccc7)c7nc(c(-c8ccccc8)c8ccc5[nH]8)C=C7)C=C6)cc4)O[Si]4(CCC[N+](C)(C)C)O[Si](CCC[N+](C)(C)C)(O1)O[Si]1(CCC[N+](C)(C)C)O[Si](CCC[N+](C)(C)C)(O2)O[Si](CCC[N+](C)(C)C)(O3)O[Si](CCC[N+](C)(C)C)(O4)O1 [POSSP 5]    0.66

API: the following record is the query input.
### Prompt // returns reported ΦΔ (1O2 quantum yield) for input CC(C)C[Si]12O[Si]3(CCCNC(=O)Nc4ccc(-c5c6nc(c(-c7ccccc7)c7ccc([nH]7)c(-c7ccccc7)c7nc(c(-c8ccccc8)c8ccc5[nH]8)C=C7)C=C6)cc4)O[Si]4(CC(C)C)O[Si](CC(C)C)(O1)O[Si]1(CC(C)C)O[Si](CC(C)C)(O2)O[Si](CC(C)C)(O3)O[Si](CC(C)C)(O4)O1 [POSSP 1]
### Response 0.82

====

test: Partition coefficient (log POW) from n-butanol/water measurement; format: physicochemical; conditions: n-butanol/water measured at 25 °C, converted with calibration equation
MEASURED ATTRIBUTE: log POW (in words)

C[N+](C)(C)CCC[Si]12O[Si]3(CCCNC(=O)c4ccc(-c5c6nc(c(-c7ccccc7)c7ccc([nH]7)c(-c7ccccc7)c7nc(c(-c8ccccc8)c8ccc5[nH]8)C=C7)C=C6)cc4)O[Si]4(CCC[N+](C)(C)C)O[Si](CCC[N+](C)(C)C)(O1)O[Si]1(CCC[N+](C)(C)C)O[Si](CCC[N+](C)(C)C)(O2)O[Si](CCC[N+](C)(C)C)(O3)O[Si](CCC[N+](C)(C)C)(O4)O1    Negative log POW values
CC(C)C[Si]12O[Si]3(CCCNC(=O)Nc4ccc(-c5c6nc(c(-c7ccccc7)c7ccc([nH]7)c(-c7ccccc7)c7nc(c(-c8ccccc8)c8ccc5[nH]8)C=C7)C=C6)cc4)O[Si]4(CC(C)C)O[Si](CC(C)C)(O1)O[Si]1(CC(C)C)O[Si](CC(C)C)(O2)O[Si](CC(C)C)(O3)O[Si](CC(C)C)(O4)O1    positive values
NCCC[Si]12O[Si]3(CCCN)O[Si]4(CCCN)O[Si](CCCN)(O1)O[Si]1(CCCN)O[Si](CCCN)(O2)O[Si](CCCN)(O3)O[Si](CCCNC(=O)c2ccc(-c3c5nc(c(-c6ccccc6)c6ccc([nH]6)c(-c6ccccc6)c6nc(c(-c7ccccc7)c7ccc3[nH]7)C=C6)C=C5)cc2)(O4)O1    Negative log POW values
O=C(NCCC[Si]12O[Si]3(c4ccccc4)O[Si]4(c5ccccc5)O[Si](c5ccccc5)(O1)O[Si]1(c5ccccc5)O[Si](c5ccccc5)(O2)O[Si](c2ccccc2)(O3)O[Si](c2ccccc2)(O4)O1)Nc1ccc(-c2c3nc(c(-c4ccccc4)c4ccc([nH]4)c(-c4ccccc4)c4nc(c(-c5ccccc5)c5ccc2[nH]5)C=C4)C=C3)cc1    positive values
